These measurements were taken from patent US8993779B2.

Assay target: recombinant human mGluR2 (Homo sapiens, UniProt Q14416)
Construct: expressed in transfected cells
Sequence (Q14416 19-872): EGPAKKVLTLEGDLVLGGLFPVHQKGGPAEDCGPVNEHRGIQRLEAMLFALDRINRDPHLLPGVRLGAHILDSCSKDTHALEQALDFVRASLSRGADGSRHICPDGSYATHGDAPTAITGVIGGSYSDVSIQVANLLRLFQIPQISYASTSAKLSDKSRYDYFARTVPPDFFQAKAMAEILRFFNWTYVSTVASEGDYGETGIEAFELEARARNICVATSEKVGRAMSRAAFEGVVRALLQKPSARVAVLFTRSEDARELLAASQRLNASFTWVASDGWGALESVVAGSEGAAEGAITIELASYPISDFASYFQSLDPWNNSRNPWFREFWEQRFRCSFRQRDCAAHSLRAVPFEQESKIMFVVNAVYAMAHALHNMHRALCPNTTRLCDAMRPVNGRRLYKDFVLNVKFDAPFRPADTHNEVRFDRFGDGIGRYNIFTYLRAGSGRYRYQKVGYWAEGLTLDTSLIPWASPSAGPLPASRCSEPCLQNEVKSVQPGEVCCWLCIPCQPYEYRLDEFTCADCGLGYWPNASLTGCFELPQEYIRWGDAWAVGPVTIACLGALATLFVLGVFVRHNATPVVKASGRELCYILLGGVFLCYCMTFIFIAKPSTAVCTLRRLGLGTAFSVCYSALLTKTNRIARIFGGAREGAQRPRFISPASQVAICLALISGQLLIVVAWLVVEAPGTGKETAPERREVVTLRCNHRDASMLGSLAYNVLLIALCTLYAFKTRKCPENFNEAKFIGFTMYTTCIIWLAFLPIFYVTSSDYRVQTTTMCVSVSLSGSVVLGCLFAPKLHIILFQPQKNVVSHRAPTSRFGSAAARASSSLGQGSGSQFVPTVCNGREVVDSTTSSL
Test name: FLIPR Ca2+ mobilization assay, potentiation of mGluR2 receptor
Type: cell-based
Reported conditions: potentiation after EC20 glutamate (900 nM); read-out: EC50 potentiating the mGluR2 receptor in the FLIPR assay
pEC50: −log10 of the molar value.
Measured parameter: pEC50

[1] Cc1ccccc1-c1ccc2c(c1)n(C)c(=O)n2C1CCN(c2ncccn2)CC1
[2] Cn1c(=O)n(C2CCN(c3ncccn3)CC2)c2ccc(-c3ccccc3C(N)=O)cc21
Exercise: Lab log: flag the item ( 1 or 2 ) with the smaller pEC50 figure. Mark your selection by writing its label.
Key: 2

---

Assay target: recombinant human mGluR2 (Homo sapiens)
Construct: expressed in transfected cells
Test name: FLIPR Ca2+ mobilization assay, potentiation of mGluR2 receptor
Type: cell-based
Reported conditions: CHO dhfr- cells expressing human mGluR2 and Gα16; potentiation after EC20 glutamate (900 nM); read-out: FLIPR EC50
Measured parameter: EC50 (nM)

Below, each entry is followed by its recorded EC50 result.
Smi: Cn1c(=O)n(-c2cccc(C(F)(F)F)c2)c2ccc(-c3ccccc3C#N)cc21
Endpoint result: 45

Smi: CN1CCN(c2ccc(-c3ccc4c(c3F)n(C)c(=O)n4CC3(C)CC3)cn2)CC1
Endpoint result: 781

[A] Cn1c(=O)n(CC2CC2)c2ccc(-c3ccncc3C(F)(F)F)c(F)c21
[B] Cn1c(=O)n(CC(C)(C)C)c2ccc(-c3cccc(OCc4ccccc4C(F)(F)F)c3)cc21
Exercise: Lab log: flag the item ( A or B ) with the smaller EC50 figure. Mark your selection by writing its label.
Key: A

---

This listing pairs compounds with measured pEC50.
Assay target: recombinant human mGluR2 (Homo sapiens, UniProt Q14416)
Construct: expressed in transfected cells
Test name: FLIPR Ca2+ mobilization assay, potentiation of mGluR2 receptor
Type: cell-based
Reported conditions: potentiation after EC20 glutamate (900 nM); read-out: EC50 potentiating the mGluR2 receptor in the FLIPR assay
pEC50: −log10 of the molar value.

Smi: Cc1ccccc1-c1ccc2c(c1)n(C)c(=O)n2C1CCNCC1
Endpoint result: < 4.52

Smi: Cn1c(=O)n(C2CCNCC2)c2ccc(-c3ccccc3C(N)=O)cc21
Endpoint result: < 4.52

Exercise: Give recorded pEC50. Cc1ccccc1-c1ccc2c(c1)n(C)c(=O)n2C1CCN(C(=O)OC(C)(C)C)CC1
Key: < 4.52
